Cited source: patent US20240285664A1

# Test system: human LINE-1
# protocol: Human LINE-1 retrotransposition assay (HeLa cell-based dual-luciferase reporter)
# assay setup: HeLa cells, reporter plasmid pYX017, 72 h incubation, Firefly/Renilla luciferase; read-out: Human LINE-1 IC50 (μM), Human L1 activity inhibition
# Protocol: Islatravir and other compounds were tested for inhibition of retrotransposition activity of human LINE-1 in HeLa cells according to the following procedure. […] Assays were performed using reporter plasmid pYX017 as described (Xie, et al., 2011) with several modifications. […] Different cell plating densities were tested and a density of 2×10^3 cells was determined to be optimal. […] Firefly and Renilla luciferase signals were measured using a SpectraMax i3x Multi-Mode Microplate Reader. […]
quantity kind: IC50
Please append the unit to your numeric answer.

Exercise: Recorded IC50 of C[C@H](Cn1cnc2c(N)ncnc21)OCP(=O)(O)O , please.
Solution: 2.77 µM
